System: VchCAST RNA-guided transposition machinery (E. coli BL21(DE3) host, lacZ target)
METHOD_SUMMARY: relative integration efficiency (T-RL orientation) vs wild-type transposon end (log2 (normalized fold change)); transposon end mutated: right end (5 bp flank + 75 bp right end); higher = more efficient transposition
Where relative integration efficiency (log2) equals or exceeds -2, the correct label is t; where it does not, the label is f.

Asked: Quick check: does ACATTTGTTGATACAACCATAAAAGGATAATTACACCCATAAATTGATAATTATCCCACCCCATTTAACTATAACGCTCTGATCATAGTCAGACCAACATTGCTACGACCCGTATTCGCACCGACAC have relative integration efficiency (log2) greater than or equal to -2?
Given back: t

Asked: Quick check: does ACATTTGTTGATACAACCATAAAATTCTAATTACACCCATAAATTGATAATTATCACACCCATAAATTGATATTGCCTCTGATCATAGTCAGACCAACATTGCTACGACCCGTATTCGCACCGACAC have relative integration efficiency (log2) greater than or equal to -2?
Given back: t

Asked: Quick check: does ACATTTGTTGATACAACCATAAAAGGATCATTACACCCATAAATTGATAATTATCACACCCCATTTAACTATAACGCTCTGATCATAGTCAGACCAACATTGCTACGACCCGTATTCGCACCGACAC have relative integration efficiency (log2) greater than or equal to -2?
Given back: f

Asked: Quick check: does ACATTTGTTGATACAACCATAAAATGATAATGCCACCCATAAATTGATAATGCTCACACCCATAAATTGATATTTACTCTGATCATAGTCAGACCAACATTGCTACGACCCGTATTCGCACCGACAC have relative integration efficiency (log2) greater than or equal to -2?
Given back: t

Asked: Quick check: does ACATTTGTTCATACAACCCTAAAATGATAATTACACCCATAAATTGATCATTATCACACCCAATTTAACTATAACGCTCTGATCATAGTCAGACCAACATTGCTACGACCCGTATTCGCACCGACAC have relative integration efficiency (log2) greater than or equal to -2?
Given back: f

====

Test system: VchCAST RNA-guided transposition machinery (E. coli BL21(DE3) host, lacZ target)
METHOD_SUMMARY: relative integration efficiency (T-LR orientation) vs wild-type transposon end (log2 (normalized fold change)); transposon end mutated: left end; higher = more efficient transposition
Where relative integration efficiency (log2) equals or exceeds -3, the correct label is yes (1); where it does not, the label is no (0).

Asked: Quick check: does AATGTTGTTGATGCAACCATAAAGTGATATTTAATAATTATTTATAATCAGCAACTTAACCACAAAACAACCATATATTGATATCTCACACAACCATAAGTTGATATTTTTGTGAATCGAGTATTTCAGCAAAACTACTGCAGTAAGAAAGT have relative integration efficiency (log2) greater than or equal to -3?
Given back: yes (1)

Asked: Quick check: does AATGTTGTTGATGCAACCATAAAGTGATATTTACAACCATAAAGTGATATTTAACTTAACCACAAAACAACCATATATTGATATCTCACAAAACAACCATAAGTTGATATTTTTGTGAATCGAGTATTTCAGCAAAACTACTGCAGTAAGAA have relative integration efficiency (log2) greater than or equal to -3?
Given back: yes (1)

Asked: Quick check: does AATGTTGTTGATGCAACCATAAAGTGATATTTAATAATTATTTATAATCAGCAACTTAACCACAAAACCCAACGCGCGGTCGCGAGACACCCCACCAACGCCTGGTCGCGGGGGTGTCCGATCTGATTTCAGCAAAACTACTGCAGTAAGAA have relative integration efficiency (log2) greater than or equal to -3?
Given back: yes (1)

Asked: Quick check: does AATGTTGTTGATGCAACCATAAAGTGATATTTAATAATTATTCAACCATATATTGATATCTCTATAATCAGCAACTTAACCACAAAAACAAAACAACCATAAGTTGATATTTTTGTGAATCGAGTATTTCAGCAAAACTACTGCAGTAAGAA have relative integration efficiency (log2) greater than or equal to -3?
Given back: no (0)

Asked: Quick check: does AATGTTGTTGATGCAACCATAAAGTGATATTTAATAATTATTTATAATCAGCAACTTAACACACCCCACCAACGCGCGGTCGCGAGACACCCCACCAACGCCTGGTCGCGGGGGTGTCCGATCTGATTTCAGCAAAACTACTGCAGTAAGAA have relative integration efficiency (log2) greater than or equal to -3?
Given back: no (0)

Asked: Quick check: does AATGTTGTTGATGCAACCATAAAGTGATATTTAATAATTATTTATAATCAGCAACTTAACCACAAAACAACCATATATTGATCGAGACACCCCACCAACGCCTGGTCGCGGGGGTGTCCGATCTGATTTCAGCAAAACTACTGCAGTAAGAA have relative integration efficiency (log2) greater than or equal to -3?
Given back: yes (1)

Asked: Quick check: does AATGTTGTTGATGCAACCATAAAGTGATATTTAATAACTTCGTATAGGATACTTTATACGAAGTTATCAACCATATATTGATATCTCACAAAACAACCATAAGTTGATATTTTTGTGAATCGAGTATTTCAGCAAAACTACTGCAGTAAGAA have relative integration efficiency (log2) greater than or equal to -3?
Given back: no (0)

Asked: Quick check: does AATGTTGTTGATGCAACCATAAAGTGATATTTAATAACTTCGTATAATGTATGCTATACGAAGTTATCAACCATATATTGATATCTCACAAAACAACCATAAGTTGATATTTTTGTGAATCGAGTATTTCAGCAAAACTACTGCAGTAAGAA have relative integration efficiency (log2) greater than or equal to -3?
Given back: no (0)

Asked: Quick check: does AATGTTGTTGATGCAACCATAAAGTGATATTTAATAATTATTTACAACCATATATTGATATCTCTAATCAGCAACTTAACCACAAAAACAAAACAACCATAAGTTGATATTTTTGTGAATCGAGTATTTCAGCAAAACTACTGCAGTAAGAA have relative integration efficiency (log2) greater than or equal to -3?
Given back: yes (1)

====

Test system: VchCAST RNA-guided transposition machinery (E. coli BL21(DE3) host, lacZ target)
METHOD_SUMMARY: relative integration efficiency (T-RL orientation) vs wild-type transposon end (log2 (normalized fold change)); transposon end mutated: right end (5 bp flank + 75 bp right end); higher = more efficient transposition
Exercise: state measured relative integration efficiency (log2) for each of the sequences provided.
Output spec: single numeric token, no unit.

Asked: Dear colleague, I am looking for the recorded relative integration efficiency (log2) of the following sequence: ACATTTGTTGATACAACCATAAAATGATAATTACACCCATAAATTGATAATTATCACACCCATAAATTGATATTGCCTCTGGCTAGCATTGTACCTAGGACTGAGCTAGCCATAAACGCACCGACAC
Given back: -0.0442

Asked: Dear colleague, I am looking for the recorded relative integration efficiency (log2) of the following sequence: ACATTTGTTGATACAACCATAAAATGATAATTCACCCATAAATTGATAATTATCACACCCATAAATTGATATTGCCTCTGATCATAGTCAGACCAACATTGCTACGACCCGTATTCGCACCGACACT
Given back: -1.27

Asked: Dear colleague, I am looking for the recorded relative integration efficiency (log2) of the following sequence: ACATTTGTTGATACAACCATAAAATGATAATTACACCCATAAATTGATAATGCTCACACCCATAAATTGATATTGCCTCTGATCATAGTCAGACCAACATTGCTACGACCCGTATTCGCACCGACAC
Given back: -0.488

Asked: Dear colleague, I am looking for the recorded relative integration efficiency (log2) of the following sequence: ACATTTGTTGATACAACCATAAATACTTAATTACACCCATAAATTGATAATTATCACACCCATAAATTGATATTGCCTCTGATCATAGTCAGACCAACATTGCTACGACCCGTATTCGCACCGACAC
Given back: -2.25

Asked: Dear colleague, I am looking for the recorded relative integration efficiency (log2) of the following sequence: ACATTTGTTGATACAACCATAAAATGATAATTAATAATTATTTATAATCCACCCATAAATTGATAATTATCAACAAACGCCCGGTCGCGGTACTCTGATCATAGTCAGACCAACATTGCTACGACCC
Given back: -2.37

====

Exercise: state measured relative integration efficiency (log2) for each of the sequences provided.
System: VchCAST RNA-guided transposition machinery (E. coli BL21(DE3) host, lacZ target)
METHOD_SUMMARY: relative integration efficiency (T-RL orientation) vs wild-type transposon end (log2 (normalized fold change)); transposon end mutated: right end (5 bp flank + 75 bp right end); higher = more efficient transposition

Asked: Dear colleague, I am looking for the recorded relative integration efficiency (log2) of the following sequence: ACCGTTGTTGATACAACCATAAAATGATAATTACACCCATAAATTGATAATTATCACACCCATAAATTGATATTGCCTCTGATCATAGTCAGACCAACATTGCTACGACCCGTATTCGCACCGACAC
Given back: -0.00193

Asked: Dear colleague, I am looking for the recorded relative integration efficiency (log2) of the following sequence: CAAAATGTAAAAAAAACCATACGTTGATTTTACGAAACCATACGCTGAAATAAAAACACCCATAAATTGATATTGCTTATAAAGTGTACAACACTTGAGAAAGTTTACTACAGGTATGCACCGACAC
Given back: -8.17

Asked: Dear colleague, I am looking for the recorded relative integration efficiency (log2) of the following sequence: ACATTTGTTGATACAACCATAAAATGATAATTACACCCATAAATTGATAATTATCACTGGGATAAATTGATATTGCCTCTGATCATAGTCAGACCAACATTGCTACGACCCGTATTCGCACCGACAC
Given back: -0.4
